Test system: α-glucosidase from Saccharomyces cerevisiae
Assay: In vitro α-glucosidase inhibition study (pNPG substrate, absorbance 405 nm)
Format: biochemical
Details: 2 mM of single substance; mean ± SD, n = 3
Entries annotated with measured Inhibition (%) of α-glucosidase
Respond numerically; units are % and should not be typed.

Please review the entries below; each comes with its answer.
O=c1c(O[C@@H]2O[C@H](CO)[C@H](O)[C@H](O)[C@H]2O)c(-c2ccc(O)c(O)c2)oc2cc(O)cc(O)c12 [quercetin 3-galactoside]	8.3
O=C1O[C@H]2[C@@H]3OC(=O)c4cc(O)c(O)c(O)c4-c4c(O)c(O)c5oc(=O)c6c(c(O)c(O)c7oc(=O)c4c5c76)-c4c(cc(O)c(O)c4O)C(=O)OC[C@H]3OC(O)[C@@H]2OC(=O)c2cc(O)c(O)c(O)c2-c2c1cc(O)c(O)c2O (mixture of isomers)	11.5
OC[C@H]1O[C@@H](Oc2cc3c(O[C@@H]4O[C@H](CO)[C@@H](O)[C@H](O)[C@H]4O)cc(O)cc3[o+]c2-c2ccc(O)c(O)c2)[C@H](O)[C@@H](O)[C@@H]1O [cyanidin 3,5-diglucoside]	4.9

Inhibition (%) of α-glucosidase measured on O=C(/C=C/c1ccc(O)c(O)c1)O[C@@H]1C[C@](O)(C(=O)O)C[C@@H](O)[C@H]1O [chlorogenic acid] = 1.6

Reported Inhibition (%) of α-glucosidase of O=C(/C=C/c1ccc(O)c(O)c1)O[C@H]1[C@H](O)C[C@](O)(C(=O)O)C[C@H]1O : 4.5

Sample Oc1cc(O)c2cc(O)c(-c3ccc(O)c(O)c3)[o+]c2c1 ; Inhibition (%) of α-glucosidase observed: 35.5

Item: O=C(/C=C/c1ccc(O)c(O)c1)O[C@@H]1C[C@](O)(C(=O)O)C[C@@H](O)[C@H]1O [3-caffeoylquinic acid] | Inhibition (%) of α-glucosidase: 3.6

Form: compound = O=c1oc2c(O)c(O)cc3c(=O)oc4c(O)c(O)cc1c4c23 ; Inhibition (%) of α-glucosidase = 6.0

Sure, the documented Inhibition (%) of α-glucosidase for O=C1OC[C@H]2OC(O)[C@H](O)[C@@H](O)[C@@H]2OC(=O)c2cc(O)c(O)c(O)c2-c2c(O)c(O)c3oc(=O)c4c(c(O)c(O)c5oc(=O)c2c3c54)-c2c1cc(O)c(O)c2O (mixture of isomers) is 8.7

* * *

Molecular target: porcine pancreatic α-amylase (Sus scrofa, UniProt P00690)
Construct: α-amylase from porcine pancreas; purchased Sigma-Aldrich (Taufkirchen, Germany); host or cells: porcine pancreas
Sequence (P00690 16-511): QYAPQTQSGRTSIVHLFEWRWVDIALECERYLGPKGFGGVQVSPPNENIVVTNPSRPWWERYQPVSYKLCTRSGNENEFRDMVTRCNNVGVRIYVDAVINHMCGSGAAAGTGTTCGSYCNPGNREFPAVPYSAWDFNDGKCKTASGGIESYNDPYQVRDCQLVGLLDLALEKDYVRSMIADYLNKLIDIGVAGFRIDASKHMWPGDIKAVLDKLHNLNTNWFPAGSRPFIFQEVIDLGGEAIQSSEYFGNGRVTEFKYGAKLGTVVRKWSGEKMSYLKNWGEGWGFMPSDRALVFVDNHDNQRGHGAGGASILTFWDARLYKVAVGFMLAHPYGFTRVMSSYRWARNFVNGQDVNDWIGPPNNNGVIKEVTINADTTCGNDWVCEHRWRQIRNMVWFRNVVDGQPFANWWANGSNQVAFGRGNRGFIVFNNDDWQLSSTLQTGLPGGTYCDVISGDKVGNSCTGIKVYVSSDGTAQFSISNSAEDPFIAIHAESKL
Experiment: In vitro α-amylase inhibition study (CNPG3 substrate, absorbance 405 nm)
Assay type: biochemical
Settings: 2 mM of single substance; mean ± SD, n = 3
just bin them by Inhibition (%) of α-amylase: low end = under 9%, middle = from 9% up to 20%, high end = 20% and over

Completed entries (count: 8):
O=c1c(O[C@@H]2O[C@H](CO)[C@@H](O)[C@H](O)[C@H]2O)c(-c2ccc(O)cc2)oc2cc(O)cc(O)c12 [kaempferol 3-glucoside]	high end
COc1cc(-c2[o+]c3cc(O)cc(O)c3cc2O[C@@H]2O[C@H](CO)[C@@H](O)[C@H](O)[C@H]2O)ccc1O [peonidin glucoside, Peonidin 3-glucoside]	middle
O=C1O[C@H]2[C@@H]3OC(=O)c4cc(O)c(O)c(O)c4-c4c(O)c(O)c5oc(=O)c6c(c(O)c(O)c7oc(=O)c4c5c76)-c4c(cc(O)c(O)c4O)C(=O)OC[C@H]3OC(O)[C@@H]2OC(=O)c2cc(O)c(O)c(O)c2-c2c1cc(O)c(O)c2O (mixture of isomers) [punicalagin]	low end
O=c1c(O[C@@H]2O[C@H](CO)[C@H](O)[C@H](O)[C@H]2O)c(-c2ccc(O)c(O)c2)oc2cc(O)cc(O)c12 [quercetin 3-galactoside]	high end
O=c1oc2c(O)c(O)cc3c(=O)oc4c(O)c(O)cc1c4c23 [ellagic acid]	middle
O=C(/C=C/c1ccc(O)c(O)c1)O[C@@H]1C[C@](O)(C(=O)O)C[C@@H](O)[C@H]1O [3-caffeoylquinic acid]	middle
OC[C@H]1O[C@@H](Oc2cc3c(O)cc(O)cc3[o+]c2-c2cc(O)c(O)c(O)c2)[C@H](O)[C@@H](O)[C@@H]1O [delphinidin glucoside, Delphinidin 3-glucoside]	middle
COc1cc(-c2[o+]c3cc(O)cc(O)c3cc2O[C@@H]2O[C@H](CO)[C@@H](O)[C@H](O)[C@H]2O)cc(O)c1O [petunidin glucoside, Petunidin 3-glucoside]	low end

Incoming: Bin this entry: O=C(/C=C/c1ccc(O)c(O)c1)O[C@@H](C(=O)O)[C@@H](O)C(=O)O [caftaric acid]
Outgoing: middle

Incoming: Band for C[C@@H]1O[C@@H](OC[C@H]2O[C@@H](Oc3cc4c(O)cc(O)cc4[o+]c3-c3ccc(O)c(O)c3)[C@H](O)[C@@H](O)[C@@H]2O)[C@H](O)[C@H](O)[C@H]1O [cyanidin 3-rutinoside] ?
Outgoing: low end

Incoming: Sort into band: Oc1cc(O)c2cc(O[C@@H]3OC[C@H](O)[C@H](O)[C@H]3O)c(-c3ccc(O)c(O)c3)[o+]c2c1 [cyanidin 3-arabinoside]
Outgoing: middle

Incoming: # classify by Inhibition (%) of α-amylase band: O=C(/C=C/c1ccc(O)c(O)c1)O[C@H]1[C@H](O)C[C@](O)(C(=O)O)C[C@H]1O [4-caffeoylquinic acid]
Outgoing: middle

Incoming: Looking at O=C1OC[C@H]2OC(O)[C@H](O)[C@@H](O)[C@@H]2OC(=O)c2cc(O)c(O)c(O)c2-c2c(O)c(O)c3oc(=O)c4c(c(O)c(O)c5oc(=O)c2c3c54)-c2c1cc(O)c(O)c2O (mixture of isomers) [punicalin] , which class would you pick?
Outgoing: low end

Each recorded value in this set is attributed to paper PMC7696433.
